Target: DNA-PK phosphorylation at serine 2056 (Homo sapiens (Human), UniProt P78527)
Experiment: DNA-PK phosphorylation at serine 2056 (cellular), bleomycin-treated HCT116 cells, ELISA
Format: cell-based
Settings: cellular; HCT116 cells, 10 μM bleomycin, six hours; read-out: IC50 pDNA-PK
A collection of compounds and their measured IC50

Illustrative cases are given below, each with its answer.
Compound	IC50
OC(c1ccc(F)c(-c2ncnc3cc(N4CCOCC4)ccc23)c1)c1c(Cl)cncc1Cl (centres unmarked)	0.5 to 5 µM
OC(c1ccc2nccn2n1)c1cc(-c2ncnc3cc(N4CCOCC4)ccc23)c(F)cc1Cl (centres unmarked) [Example 56]	0.5 to 5 µM
COc1ccc(C(O)(c2cc(-c3ncnc4cc(N5CCOCC5)ccc34)c(F)cc2Cl)C(F)F)nn1 (centres unmarked)	10 to 30 µM
COc1cnc(C(O)c2ccc(F)c(-c3ncnc4cc(N5CCOCC5)ccc34)c2)c(Cl)c1 (centres unmarked)	< 0.5 µM
Cn1nc(C(O)c2cc(-c3ncnc4cc(N5CCOCC5)ccc34)c(F)cc2Cl)ccc1=O (centres unmarked) [Example 59]	0.5 to 5 µM
OC(c1ccc(F)c(-c2ncnc3cc(N4CCOCC4)sc23)c1)c1nccnc1Cl (centres unmarked) [Example 37]	< 0.5 µM

Exam item: Which IC50 value belongs to OC(c1ccc(F)c(-c2ncnc3cc(N4CCOCC4)ccc23)c1)c1ccc(OC(F)F)nn1 (centres unmarked) ?
Marked response: 0.5 to 5 µM

Exam item: Which IC50 value belongs to CN(C)c1ccc(C(O)c2ccc(F)c(-c3ncnc4cc(N5CCOCC5)ccc34)c2)nn1 (centres unmarked) ?
Marked response: 5 to 10 µM

###

A collection of compounds and their measured IC50
Molecular target: DNA-PK (Homo sapiens (Human), UniProt P78527)
Experiment: DNA-PK assay (biochemical), flashplate 33P-ATP kinase assay
Conditions: enzymatic; 5 μM ATP

Illustrative cases are given below, each with its answer.
Compound	Target or system	Measured quantity	Assay result
COc1ncc(Cl)nc1C(O)c1ccc(F)c(-c2ncnc3cc(N4CCOCC4)ccc23)c1 (centres unmarked) [Example 25]	DNA-PK (Homo sapiens (Human), UniProt P78527)	IC50	3 to 7 nM
OC(c1ccc(Cl)nn1)c1cc(-c2ncnc3cc(N4CCOCC4)ccc23)c(F)cc1Cl (centres unmarked) [Example 41]	DNA-PK (Homo sapiens (Human), UniProt P78527)	IC50	3 to 7 nM
CC(C#N)Oc1ccc(C(O)c2cc(-c3ncnc4cc(N5CCOCC5)ccc34)c(F)cc2Cl)nn1 (single isomer, unassigned) [Example 103]	DNA-PK (Homo sapiens (Human), UniProt P78527)	IC50	> 30 nM
COc1ccc(C(O)(c2cc(-c3ncnc4cc(N5CCOCC5)ccc34)c(F)cc2Cl)C(F)F)nn1 (centres unmarked) [Example 123]	DNA-PK (Homo sapiens (Human), UniProt P78527)	IC50	7 to 30 nM
NC(=O)c1ccc(C(O)c2cc(-c3ncnc4cc(N5CCOCC5)ccc34)c(F)cc2Cl)nn1 (centres unmarked) [Example 62]	DNA-PK (Homo sapiens (Human), UniProt P78527)	IC50	3 to 7 nM
Cc1cnnc(C(O)c2cc(-c3ncnc4cc(N5CCOCC5)ccc34)c(F)cc2Cl)c1 (centres unmarked) [Example 46]	DNA-PK (Homo sapiens (Human), UniProt P78527)	IC50	7 to 30 nM
N#CCCOc1ccc(C(O)c2cc(-c3ncnc4cc(N5CCOCC5)ccc34)c(F)cc2Cl)nn1 (centres unmarked) [Example 107]	DNA-PK (Homo sapiens (Human), UniProt P78527)	IC50	3 to 7 nM
COc1ccc(C(O)c2cc(-c3nc(Cl)nc4cc(N5CCOCC5)ccc34)c(F)cc2Cl)nn1 (centres unmarked) [Example 132]	DNA-PK (Homo sapiens (Human), UniProt P78527)	IC50	3 to 7 nM
Cc1cc(F)c(-c2ncnc3cc(N4CCOCC4)ccc23)cc1C(O)c1nccs1 (centres unmarked) [Example 207]	DNA-PK (Homo sapiens (Human), UniProt P78527)	IC50	< 3 nM
Cc1ccc(C(O)c2ccc(F)c(-c3ncnc4cc(N5CCOCC5)ccc34)c2)nn1 (centres unmarked) [Example 70]	DNA-PK (Homo sapiens (Human), UniProt P78527)	IC50	3 to 7 nM

Exam item: Form field: IC50 recorded for OC(c1ccc(OCC(F)(F)F)nn1)c1cc(-c2ncnc3cc(N4CCOCC4)ccc23)c(F)cc1Cl (centres unmarked) [Example 115] with DNA-PK (Homo sapiens (Human), UniProt P78527) (enter value)
Marked response: 3 to 7 nM

Exam item: Form field: IC50 recorded for NC(=O)COc1ccc(C(O)c2cc(-c3ncnc4cc(N5CCOCC5)ccc34)c(F)cc2Cl)nn1 (centres unmarked) [Example 111] with DNA-PK (Homo sapiens (Human), UniProt P78527) (enter value)
Marked response: 3 to 7 nM

Each recorded value in this set is attributed to patent US9732094B2.
